target: CSF1R (Homo sapiens); experiment: HEK293 CSF1R phosphorylation MSD assay; assay type: cell-based; set-up: expressed in transfected cells; host or cells: HEK293; settings: 2 h compound, human M-CSF 50 ng/mL for 5 min; read-out: HEK293 pCSF1R M-CSF MSD:IC50
Sequence (P07333 20-972): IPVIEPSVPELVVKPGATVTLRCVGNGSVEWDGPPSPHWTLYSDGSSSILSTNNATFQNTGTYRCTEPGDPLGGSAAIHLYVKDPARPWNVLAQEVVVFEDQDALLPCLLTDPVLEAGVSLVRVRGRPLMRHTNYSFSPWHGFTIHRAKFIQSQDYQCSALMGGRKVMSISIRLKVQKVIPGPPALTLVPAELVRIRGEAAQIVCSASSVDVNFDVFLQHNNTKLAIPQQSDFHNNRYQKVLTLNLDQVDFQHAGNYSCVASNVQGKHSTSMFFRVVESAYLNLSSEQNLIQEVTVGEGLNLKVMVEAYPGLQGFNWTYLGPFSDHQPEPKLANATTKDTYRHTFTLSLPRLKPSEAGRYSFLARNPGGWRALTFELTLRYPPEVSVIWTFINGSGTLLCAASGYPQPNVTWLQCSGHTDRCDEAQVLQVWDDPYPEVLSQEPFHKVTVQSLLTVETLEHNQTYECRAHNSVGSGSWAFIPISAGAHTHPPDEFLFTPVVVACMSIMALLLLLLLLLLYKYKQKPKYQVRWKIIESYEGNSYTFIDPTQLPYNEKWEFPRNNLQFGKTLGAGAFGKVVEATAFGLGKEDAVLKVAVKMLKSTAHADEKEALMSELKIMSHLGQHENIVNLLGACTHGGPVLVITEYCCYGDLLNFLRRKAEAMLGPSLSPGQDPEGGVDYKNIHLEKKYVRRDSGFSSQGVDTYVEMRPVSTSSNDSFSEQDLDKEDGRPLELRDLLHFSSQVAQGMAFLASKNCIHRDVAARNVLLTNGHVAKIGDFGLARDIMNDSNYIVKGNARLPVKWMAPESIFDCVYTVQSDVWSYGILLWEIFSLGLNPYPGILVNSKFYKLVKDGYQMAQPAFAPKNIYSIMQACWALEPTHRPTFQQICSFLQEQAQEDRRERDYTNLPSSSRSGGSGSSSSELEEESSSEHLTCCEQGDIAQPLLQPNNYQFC
pIC50: −log10 of the molar value.
Below, each entry is listed with its recorded pIC50.

Some solved cases for reference:
[
  {
    "Molecular string": "COc1cc2c(cc1-c1cnn(C)c1)ncn2Cc1ccc2nc(N[C@@H]3CCCC[C@H]3O)sc2c1",
    "pIC50": "≥ 7.30"
  },
  {
    "Molecular string": "O[C@@H]1CCCC[C@H]1Nc1nc2ccc(Cn3cnc4cnccc43)cc2s1",
    "pIC50": "6.70 to 7.30"
  },
  {
    "Molecular string": "C#Cc1cnc2c(c1)ncn2Cc1ccc2nc(N[C@@H]3CCCC[C@H]3O)sc2c1",
    "pIC50": "≥ 7.30"
  }
]

Now consider the entry below.
Under CSF1R (Homo sapiens): report pIC50 of `OCc1cnc2c(c1)ncn2Cc1ccc2nc(N[C@@H]3CCCC[C@H]3O)sc2c1` . ≥ 7.30

====

# Kd per entry
Target: KIT (Homo sapiens)
Construct: made in house
Sequence (P10721 26-976): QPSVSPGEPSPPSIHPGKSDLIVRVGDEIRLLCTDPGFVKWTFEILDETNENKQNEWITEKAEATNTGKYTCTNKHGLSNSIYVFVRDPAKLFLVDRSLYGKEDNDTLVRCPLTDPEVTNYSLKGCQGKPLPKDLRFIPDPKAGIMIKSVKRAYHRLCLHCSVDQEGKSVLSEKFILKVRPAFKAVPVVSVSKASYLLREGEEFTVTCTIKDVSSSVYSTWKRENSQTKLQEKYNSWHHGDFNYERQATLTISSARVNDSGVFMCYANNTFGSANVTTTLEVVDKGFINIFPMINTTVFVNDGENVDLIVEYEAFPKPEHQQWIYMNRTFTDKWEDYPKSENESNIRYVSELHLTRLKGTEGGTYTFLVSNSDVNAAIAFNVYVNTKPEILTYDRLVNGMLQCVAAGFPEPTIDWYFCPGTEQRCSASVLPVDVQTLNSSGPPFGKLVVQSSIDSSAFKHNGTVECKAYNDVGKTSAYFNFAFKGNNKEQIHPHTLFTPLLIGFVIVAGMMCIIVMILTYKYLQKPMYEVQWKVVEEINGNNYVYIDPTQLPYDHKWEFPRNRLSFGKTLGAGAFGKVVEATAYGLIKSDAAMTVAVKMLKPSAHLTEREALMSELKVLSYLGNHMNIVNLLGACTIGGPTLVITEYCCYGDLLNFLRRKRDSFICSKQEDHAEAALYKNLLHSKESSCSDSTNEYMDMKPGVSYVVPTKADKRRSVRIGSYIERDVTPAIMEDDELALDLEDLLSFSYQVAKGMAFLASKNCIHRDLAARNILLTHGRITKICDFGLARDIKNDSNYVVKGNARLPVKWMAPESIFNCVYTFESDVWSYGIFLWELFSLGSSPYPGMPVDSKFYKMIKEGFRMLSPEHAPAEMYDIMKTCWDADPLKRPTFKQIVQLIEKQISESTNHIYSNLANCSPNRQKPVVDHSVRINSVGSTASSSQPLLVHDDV
Experiment: Competition binding assay, KIT Kd
Conditions: competition binding
Experimental: Competition binding assays used herein were developed, validated and performed as described in Fabian et al., Nature Biotechnology 2005, 23, 329-336. […] Kds were determined using an eleven point threefold serial dilutions. […] The kinase concentration in the eluates was measured by quantitative PCR.

[
  {
    "Molecular string": "O[C@@H]1CCCC[C@H]1Nc1nc2ccc(Cn3cnc4cccnc43)c(F)c2s1",
    "Kd": "> 2000 nM"
  },
  {
    "Molecular string": "C=Cc1cc(F)c2c(c1)ncn2Cc1ccc2nc(N[C@@H]3CCCC[C@H]3O)sc2c1",
    "Kd": "≤ 100 nM"
  },
  {
    "Molecular string": "O[C@@H]1CCCC[C@H]1Nc1nc2ccc(Cn3cnc4cc(-n5cncn5)ccc43)cc2s1",
    "Kd": "100 to 500 nM"
  },
  {
    "Molecular string": "O[C@@H]1CCCC[C@H]1Nc1nc2ccc(Cn3cnc4cc(C5=CCOCC5)ccc43)cc2s1",
    "Kd": "≤ 100 nM"
  },
  {
    "Molecular string": "O[C@@H]1CCCC[C@H]1Nc1nc2ccc(Cc3cnc4cc(-n5ccnc5)ccn34)cc2s1",
    "Kd": "100 to 500 nM"
  }
]

Identify Kd associated with the compound `C=C(c1ccc2c(c1)ncn2Cc1ccc2nc(N[C@@H]3CCCC[C@H]3O)sc2c1)C(F)(F)F` 100 to 500 nM

Answer with the recorded Kd for the compound listed here: `COc1ccc2ncn(Cc3ccc4nc(N[C@@H]5CCCC[C@H]5O)oc4c3)c2c1` ≤ 100 nM

Please look at this compound and report its Kd: `N#Cc1cnc2c(c1)ncn2Cc1ccc2nc(N[C@@H]3CCCC[C@H]3O)oc2c1` ≤ 100 nM

====

target: PDGFRβ (Homo sapiens, UniProt P09619); construct: made in house; assay: Competition binding assay, PDGFRβ Kd; conditions: competition binding
Sequence (P09619 33-1106): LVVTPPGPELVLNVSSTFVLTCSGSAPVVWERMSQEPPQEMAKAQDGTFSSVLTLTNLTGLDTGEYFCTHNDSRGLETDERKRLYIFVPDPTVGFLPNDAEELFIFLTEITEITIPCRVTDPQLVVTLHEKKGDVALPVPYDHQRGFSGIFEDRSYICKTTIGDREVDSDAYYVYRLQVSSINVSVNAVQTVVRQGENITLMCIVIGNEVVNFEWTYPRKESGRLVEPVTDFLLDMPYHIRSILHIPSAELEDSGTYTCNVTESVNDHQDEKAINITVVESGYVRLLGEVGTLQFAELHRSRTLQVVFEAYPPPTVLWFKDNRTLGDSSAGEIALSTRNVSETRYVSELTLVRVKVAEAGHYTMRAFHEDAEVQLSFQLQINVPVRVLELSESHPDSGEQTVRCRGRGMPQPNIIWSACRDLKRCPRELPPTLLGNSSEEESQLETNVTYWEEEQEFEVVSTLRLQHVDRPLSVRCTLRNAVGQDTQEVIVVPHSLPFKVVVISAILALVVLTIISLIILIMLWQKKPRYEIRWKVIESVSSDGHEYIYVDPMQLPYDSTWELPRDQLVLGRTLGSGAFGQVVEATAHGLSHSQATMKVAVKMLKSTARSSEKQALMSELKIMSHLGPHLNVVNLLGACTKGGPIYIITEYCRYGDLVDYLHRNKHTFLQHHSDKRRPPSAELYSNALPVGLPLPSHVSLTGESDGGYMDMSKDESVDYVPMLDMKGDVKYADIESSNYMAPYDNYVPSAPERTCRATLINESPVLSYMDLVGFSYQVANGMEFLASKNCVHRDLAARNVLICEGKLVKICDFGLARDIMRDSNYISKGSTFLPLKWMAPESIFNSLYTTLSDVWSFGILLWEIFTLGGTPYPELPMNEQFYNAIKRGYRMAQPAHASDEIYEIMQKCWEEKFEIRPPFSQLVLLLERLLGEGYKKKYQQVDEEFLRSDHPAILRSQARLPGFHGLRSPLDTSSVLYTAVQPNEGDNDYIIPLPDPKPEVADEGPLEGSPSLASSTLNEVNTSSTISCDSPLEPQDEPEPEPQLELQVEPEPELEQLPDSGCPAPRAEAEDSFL
pKd: −log10 of the molar value.
Measurement kind: pKd

[
  {
    "Molecular string": "O[C@@H]1CCCC[C@H]1Nc1nc2ccc(Cn3cnc4cc(C5=CCOCC5)cc(F)c43)cc2s1",
    "pKd": "≥ 7.30"
  },
  {
    "Molecular string": "C#Cc1ccc2ncn(Cc3ccc4nc(N[C@@H]5CCCC[C@H]5O)sc4c3)c2c1",
    "pKd": "6.30 to 7.30"
  },
  {
    "Molecular string": "CC(=O)c1ccc2ncn(Cc3ccc4nc(N[C@@H]5CCCC[C@H]5O)sc4c3)c2c1",
    "pKd": "6.30 to 7.30"
  }
]

Now for a further molecule.
Note down pKd recorded for `O[C@@H]1CCCC[C@H]1Nc1nc2ccc(Cn3cnc4cc(C(F)(F)F)cnc43)cc2s1` ≥ 7.30

The origin of these recorded values is patent US9938261B2.
